// provenance: patent US9040523B2

Test: Liver metabolic stability assay, mLM
Type: in vitro ADME
Conditions: mouse liver microsomes, 1 mg protein/ml, 5 μM test compound, 15 min, 37 °C
Protocol: Liver preparations (microsomal fractions) were obtained from BD Gentest (San Jose, Calif., US). Metabolic stability was assessed using the following assay conditions. […] The mixture was pre-incubated at 37° C. for 5 min and the enzymatic reaction was started by addition of 5 μM test compound. […] The supernatant was analysed by LC-MS/MS on a ThermoFinnigan LCQ Deca XP ion-trap mass spectrometer equipped with an atmospheric pressure chemical ionisation source. […]
// classify: if (%-compound metabolised Met_mLM < 70%) Fulfilled else Not fulfilled

Request: Consider CC(=O)c1cccc(C2=NCc3c(Cl)cccc3-n3cccc32)c1 . Does its %-compound metabolised Met_mLM lie strictly below 70%?
Response: Not fulfilled

Request: # check: %-compound metabolised Met_mLM < 70% for CC(=O)c1ccc(C2=NCc3c(ccc(Cl)c3Cl)-n3cccc32)cc1.Cl
Response: Fulfilled

Request: I wonder whether CS(=O)(=O)c1ccc(C2=NCc3c(Cl)cccc3-n3cccc32)cc1 has %-compound metabolised Met_mLM below 70%. Can you tell?
Response: Fulfilled
